- assay.system: D. immitis iPGM (Dirofilaria immitis, UniProt F4ZE01)
- measurement.notes: biochemical
- stated.conditions: Di iPGM Ave IC50 (M)
measurement.kind: IC50 (M)
Please respond with the number in M and leave the unit unwritten.

compound	measurement.kind	obs.value
CC(C)C[C@H](NC(=O)[C@H](Cc1ccc(O)cc1)NC(=O)[C@@H]1CSCC(=O)N[C@H](Cc2ccc(O)cc2)C(=O)N[C@@H](CC(=O)O)C(=O)N[C@@H](Cc2ccc(F)cc2)C(=O)N2CCC[C@H]2C(=O)NCC(=O)N[C@@H](CC(=O)O)C(=O)N[C@@H](Cc2ccc(O)cc2)C(=O)N1)C(=O)N[C@@H](Cc1ccc(O)cc1)C(N)=O	IC50	1.48e-07

Ask: Give recorded IC50 with D. immitis iPGM (Dirofilaria immitis, UniProt F4ZE01) for the following compound: "CC(C)C[C@H](NC(=O)[C@H](Cc1ccccc1)NC(=O)[C@@H]1CSCC(=O)N[C@H](Cc2ccc(O)cc2)C(=O)N[C@@H](CC(=O)O)C(=O)N[C@@H](Cc2ccc(O)cc2)C(=O)N2CCC[C@H]2C(=O)NCC(=O)N[C@@H](CC(=O)O)C(=O)N[C@@H](Cc2ccc(O)cc2)C(=O)N1)C(=O)N[C@@H](Cc1ccc(O)cc1)C(N)=O"
Reply: 1.43e-05

Ask: Give recorded IC50 with D. immitis iPGM (Dirofilaria immitis, UniProt F4ZE01) for the following compound: "CC(C)C[C@H](NC(=O)[C@H](Cc1ccc(O)cc1)NC(=O)[C@@H]1CSCC(=O)N[C@H](Cc2ccc(O)cc2)C(=O)N[C@@H](CC(=O)O)C(=O)N[C@@H](Cc2ccc(O)cc2)C(=O)N2CCC[C@H]2C(=O)NCC(=O)N[C@@H](CC(=O)O)C(=O)N[C@@H](Cc2ccc(O)cc2)C(=O)N1)C(=O)N[C@@H](Cc1ccc(O)cc1)C(=O)NCC(=O)N[C@H](C(=O)N[C@@H](CS)C(N)=O)[C@@H](C)O"
Reply: 8.27e-10

Ask: Give recorded IC50 with D. immitis iPGM (Dirofilaria immitis, UniProt F4ZE01) for the following compound: "CC(C)C[C@H](NC(=O)[C@H](Cc1ccc(O)cc1)NC(=O)[C@@H]1CSCC(=O)N[C@H](Cc2ccc(O)cc2)C(=O)N[C@@H](C(C)C)C(=O)N[C@@H](Cc2ccc(O)cc2)C(=O)N2CCC[C@H]2C(=O)NCC(=O)N[C@@H](CC(=O)O)C(=O)N[C@@H](Cc2ccc(O)cc2)C(=O)N1)C(=O)N[C@@H](Cc1ccc(O)cc1)C(N)=O"
Reply: 5.77e-07

Ask: Give recorded IC50 with D. immitis iPGM (Dirofilaria immitis, UniProt F4ZE01) for the following compound: CC(C)C[C@H](NC(=O)[C@H](CC(C)C)NC(=O)[C@H](Cc1ccc(O)cc1)NC(=O)[C@@H]1CSCC(=O)N[C@H](Cc2ccc(O)cc2)C(=O)N[C@@H](CC(=O)O)C(=O)N[C@@H](Cc2ccc(O)cc2)C(=O)N2CCC[C@H]2C(=O)NCC(=O)N[C@@H](CC(=O)O)C(=O)N[C@@H](Cc2ccc(O)cc2)C(=O)N1)C(N)=O [Ce-2d Y11L]
Reply: 2.43e-07

Ask: Give recorded IC50 with D. immitis iPGM (Dirofilaria immitis, UniProt F4ZE01) for the following compound: "CC(C)C[C@H](NC(=O)[C@H](Cc1ccc(O)cc1)NC(=O)[C@@H]1CSCC(=O)N[C@H](Cc2ccc(O)cc2)C(=O)N[C@@H](CC(=O)O)C(=O)N[C@@H](Cc2ccc(O)cc2)C(=O)N2CCC[C@H]2C(=O)NCC(=O)N[C@@H](CC(N)=O)C(=O)N[C@@H](Cc2ccc(O)cc2)C(=O)N1)C(=O)N[C@@H](Cc1ccc(O)cc1)C(N)=O"
Reply: 6.18e-06

====

- assay.system: D. immitis iPGM (Dirofilaria immitis, UniProt F4ZE01)
- measurement.notes: biochemical
- stated.conditions: Di iPGM Ave IC50 (M)
Bridge positions count the residues as written; N and C are the ends. Square brackets hold non-standard residues; d marks the D form. Peptide text beside a SMILES is read from it.
Measured IC50 accompanies every entry in the list below.
Please respond with the number in M and leave the unit unwritten.

molecule	measurement.units	obs.value
CC(C)C[C@H](NC(=O)[C@H](Cc1ccc(O)cc1)NC(=O)[C@@H]1CSCC(=O)N[C@H](Cc2ccc(O)cc2)C(=O)N[C@@H](CC(=O)O)C(=O)N[C@@H](Cc2ccc(O)cc2)C(=O)N[C@@H](C(C)C)C(=O)NCC(=O)N[C@@H](CC(=O)O)C(=O)N[C@@H](Cc2ccc(O)cc2)C(=O)N1)C(=O)N[C@@H](Cc1ccc(O)cc1)C(=O)NCC(=O)N[C@H](C(=O)N[C@@H](CS)C(N)=O)[C@@H](C)O	M	2.14e-09
CC(C)C[C@H](NC(=O)[C@H](Cc1ccc(O)cc1)NC(=O)[C@@H]1CSCC(=O)N[C@H](Cc2ccc(O)cc2)C(=O)N[C@@H](CC(N)=O)C(=O)N[C@@H](Cc2ccc(O)cc2)C(=O)N2CCC[C@H]2C(=O)NCC(=O)N[C@@H](CC(=O)O)C(=O)N[C@@H](Cc2ccc(O)cc2)C(=O)N1)C(=O)N[C@@H](Cc1ccc(O)cc1)C(=O)NCC(=O)N[C@H](C(=O)N[C@@H](CS)C(N)=O)[C@@H](C)O [Ce-2 D2N] ({CH2CO}-[dY]NYPGDYCYLYGTC-NH2; thioether N-8)	M	1.99e-09
CC(C)C[C@H](NC(=O)[C@H](Cc1ccc(O)cc1)NC(=O)[C@@H]1CSCC(=O)N[C@H](Cc2ccc(O)cc2)C(=O)N[C@@H](CC(=O)O)C(=O)N[C@@H](Cc2ccc(O)cc2)C(=O)N2CCC[C@H]2C(=O)NCC(=O)N[C@@H](CC(=O)O)C(=O)N[C@@H](Cc2ccccc2)C(=O)N1)C(=O)N[C@@H](Cc1ccc(O)cc1)C(=O)NCC(=O)N[C@H](C(=O)N[C@@H](CS)C(N)=O)[C@@H](C)O	M	1.73e-09
COc1ccc(C[C@H](NC(=O)[C@H](CC(C)C)NC(=O)[C@H](Cc2ccc(O)cc2)NC(=O)[C@@H]2CSCC(=O)N[C@H](Cc3ccc(O)cc3)C(=O)N[C@@H](CC(=O)O)C(=O)N[C@@H](Cc3ccc(O)cc3)C(=O)N3CCC[C@H]3C(=O)NCC(=O)N[C@@H](CC(=O)O)C(=O)N[C@@H](Cc3ccc(O)cc3)C(=O)N2)C(N)=O)cc1	M	6.05e-08

Ask: Need IC50 of CC(C)C[C@H](NC(=O)[C@H](Cc1ccccc1)NC(=O)[C@@H]1CSCC(=O)N[C@H](Cc2ccc(O)cc2)C(=O)N[C@@H](CC(=O)O)C(=O)N[C@@H](Cc2ccc(O)cc2)C(=O)N2CCC[C@H]2C(=O)NCC(=O)N[C@@H](CC(=O)O)C(=O)N[C@@H](Cc2ccccc2)C(=O)N1)C(=O)N[C@@H](Cc1ccc(O)cc1)C(=O)NCC(=O)N[C@H](C(=O)N[C@@H](CS)C(N)=O)[C@@H](C)O [Ce-2 Y7F, Y9F] ({CH2CO}-[dY]DYPGDFCFLYGTC-NH2; thioether N-8) , thanks.
Reply: 2.07e-08

====

- assay.system: D. immitis iPGM (Dirofilaria immitis)
- measurement.notes: biochemical
- stated.conditions: Di iPGM Ave IC50 (M)
measurement.kind: log10(IC50) (log10 of the value in M)
Each number you see is log10 of IC50, and the unit inside the log is M.

Recorded results for 3 molecules are shown here.
molecule	measurement.kind	obs.value
CC(C)C[C@H](NC(=O)[C@H](Cc1ccc(O)cc1)NC(=O)[C@@H]1CSCC(=O)N[C@H](Cc2ccc(O)cc2)C(=O)N[C@@H](CC(=O)O)C(=O)N[C@@H](Cc2ccc(O)cc2)C(=O)N2CCC[C@H]2C(=O)NCC(=O)N[C@@H](CC(=O)O)C(=O)N[C@@H](Cc2ccc(O)cc2)C(=O)N1)C(=O)N[C@@H](Cc1ccc(O)cc1)C(=O)NCC(=O)NCC(=O)N[C@@H](Cc1c[nH]cn1)C(N)=O [Ce-2 T13G, C14H]	log10(IC50)	-6.95
CC(C)C[C@H](NC(=O)[C@H](Cc1ccc(O)cc1)NC(=O)[C@@H]1CSCC(=O)N[C@@H](Cc2ccc(F)cc2)C(=O)N[C@@H](CC(=O)O)C(=O)N[C@@H](Cc2ccc(O)cc2)C(=O)N2CCC[C@H]2C(=O)NCC(=O)N[C@@H](CC(=O)O)C(=O)N[C@@H](Cc2ccc(O)cc2)C(=O)N1)C(=O)N[C@@H](Cc1ccc(O)cc1)C(N)=O [Ce-2d Y1(4F)F]	log10(IC50)	-7.27
CC(C)C[C@H](NC(=O)[C@H](Cc1ccc(O)cc1)NC(=O)[C@@H]1CSCC(=O)N[C@H](Cc2ccc(O)cc2)C(=O)N[C@@H](CC(=O)O)C(=O)N[C@@H](Cc2ccc(O)cc2)C(=O)N2CCC[C@H]2C(=O)NCC(=O)N[C@@H](CC(=O)O)C(=O)N[C@@H](Cc2ccc(F)cc2)C(=O)N1)C(=O)N[C@@H](Cc1ccc(O)cc1)C(=O)NCC(=O)N[C@H](C(=O)N[C@@H](CS)C(N)=O)[C@@H](C)O [Ce-2 Y7(4F)F]	log10(IC50)	-8.78

Then this molecule:
Ask: Need log10(IC50) of CC(C)C[C@H](NC(=O)[C@H](Cc1ccc(O)cc1)NC(=O)[C@@H]1CSCC(=O)N[C@H](Cc2ccc(O)cc2)C(=O)N[C@@H](CC(=O)O)C(=O)N[C@@H](Cc2ccc(O)cc2)C(=O)N2CCC[C@H]2C(=O)NCC(=O)N[C@@H](CC(=O)O)C(=O)N[C@@H](Cc2ccc(O)cc2)C(=O)N1)C(=O)N[C@@H](Cc1ccccc1)C(N)=O [Ce-2d Y11F] , thanks.
Reply: -7.00
